For each record, write down the corresponding remaining at 2 h, 70 µM.
assay: physchem; type: physicochemical; details: aqueous solution, pH 2
Expressed in %, but write only the number.

// remaining at 2 h, 70 µM lookup, key: O=C1O[C@H]([C@@H](O)CO[C@H]2O[C@H](CO)[C@@H](O)[C@H](O)[C@H]2O)C(O)=C1O [6GAsA, 6-O-α-D-glucosyl-L-ascorbic acid] 98

O=C1O[C@H]([C@@H](O)CO)C(O)=C1O [AsA, L-ascorbic acid] , same question. 95

O=C1O[C@H]([C@@H](O)CO)C(O)=C1O[C@H]1O[C@H](CO)[C@@H](O)[C@H](O)[C@H]1O [2-O-α-D-glucopyranosyl-L-ascorbic acid] , same question. 100

----------
test: Dissociation constant; assay type: physicochemical
Reported property: pKa
Please give only the number in your answer, with no unit.

// pKa lookup, key: O=C1O[C@H]([C@@H](O)CO)C(O)=C1O[C@H]1O[C@H](CO)[C@@H](O)[C@H](O)[C@H]1O 3

----------
For each record, write down the corresponding remaining at 24 h, 70 µM.
test: physchem; type: physicochemical; settings: aqueous solution, pH 2
Give the figure together with its unit, number first.

// remaining at 24 h, 70 µM lookup, key: O=C1O[C@H]([C@@H](O)CO[C@H]2O[C@H](CO)[C@@H](O)[C@H](O)[C@H]2O)C(O)=C1O 12%

O=C1O[C@H]([C@@H](O)CO)C(O)=C1O[C@H]1O[C@H](CO)[C@@H](O)[C@H](O)[C@H]1O , same question. 100%

O=C1O[C@H]([C@@H](O)CO)C(O)=C1O , same question. 4%

----------
For each record, write down the corresponding remaining at 24 h, 70 µM.
assay: physchem; format: physicochemical; details: aqueous solution, pH 7
Expressed in %, but write only the number.

// remaining at 24 h, 70 µM lookup, key: O=C1O[C@H]([C@@H](O)CO)C(O)=C1O [AsA, L-ascorbic acid] 1

O=C1O[C@H]([C@@H](O)CO[C@H]2O[C@H](CO)[C@@H](O)[C@H](O)[C@H]2O)C(O)=C1O [6GAsA, 6-O-α-D-glucosyl-L-ascorbic acid] , same question. 4

O=C1O[C@H]([C@@H](O)CO)C(O)=C1O[C@H]1O[C@H](CO)[C@@H](O)[C@H](O)[C@H]1O [2-O-α-D-glucopyranosyl-L-ascorbic acid] , same question. 100
